# maps each entry to its PI (relative stability), 25% TIDE 2X with DTPA
METHOD_DESCRIPTION: Stability assay in 25% TIDE 2X detergent with DTPA (residual Abz-AGLA-Nba protease activity)
Assay type: physicochemical
MEASUREMENT_SETUP: 60 min at 32°C; variant residual AGLA activity divided by wild-type residual activity

MOLECULE	MEASURED_VALUE
Y151Q: single-substitution thermolysin variant (SEQ ID NO:3 numbering) (protein, listed as Geobacillus caldoproteolyticus) ITGTSTVGVGRGVLGDQKNINTTYSTYYYLQDNTRGNGIFTYDAKYRTTLPGSLWADADNQFFASYDAPAVDAHYYAGVTYDYYKNVHNRLSYDGNNAAIRSSVHYSQGYNNAFWNGSQMVYGDGDGQTFIPLSGGIDVVAHELTHAVTDQTAGLIYQNESGAINEAISDIFGTLVEFYANKNPDWEIGEDVYTPGISGDSLRSMSDPAKYGDPDHYSKRYTGTQDNGGVHINSGIINKAAYLISQGGTHYGVSVVGIGRDKLGKIFYRALTQYLTPTSNFSQLRAAAVQSATDLYGSTSQEVASVKQAFDAVGVK	1.03

Prompt: Query: PI (relative stability), 25% TIDE 2X with DTPA; subject: Q273A: single-substitution thermolysin variant (SEQ ID NO:3 numbering) (protein, listed as Geobacillus caldoproteolyticus) ITGTSTVGVGRGVLGDQKNINTTYSTYYYLQDNTRGNGIFTYDAKYRTTLPGSLWADADNQFFASYDAPAVDAHYYAGVTYDYYKNVHNRLSYDGNNAAIRSSVHYSQGYNNAFWNGSQMVYGDGDGQTFIPLSGGIDVVAHELTHAVTDYTAGLIYQNESGAINEAISDIFGTLVEFYANKNPDWEIGEDVYTPGISGDSLRSMSDPAKYGDPDHYSKRYTGTQDNGGVHINSGIINKAAYLISQGGTHYGVSVVGIGRDKLGKIFYRALTAYLTPTSNFSQLRAAAVQSATDLYGSTSQEVASVKQAFDAVGVK
Completion: 1.03

Prompt: Query: PI (relative stability), 25% TIDE 2X with DTPA; subject: N280I: single-substitution thermolysin variant (SEQ ID NO:3 numbering) (protein, listed as Geobacillus caldoproteolyticus) ITGTSTVGVGRGVLGDQKNINTTYSTYYYLQDNTRGNGIFTYDAKYRTTLPGSLWADADNQFFASYDAPAVDAHYYAGVTYDYYKNVHNRLSYDGNNAAIRSSVHYSQGYNNAFWNGSQMVYGDGDGQTFIPLSGGIDVVAHELTHAVTDYTAGLIYQNESGAINEAISDIFGTLVEFYANKNPDWEIGEDVYTPGISGDSLRSMSDPAKYGDPDHYSKRYTGTQDNGGVHINSGIINKAAYLISQGGTHYGVSVVGIGRDKLGKIFYRALTQYLTPTSIFSQLRAAAVQSATDLYGSTSQEVASVKQAFDAVGVK
Completion: 1.16

Prompt: Query: PI (relative stability), 25% TIDE 2X with DTPA; subject: Q273N: single-substitution thermolysin variant (SEQ ID NO:3 numbering) (protein, listed as Geobacillus caldoproteolyticus) ITGTSTVGVGRGVLGDQKNINTTYSTYYYLQDNTRGNGIFTYDAKYRTTLPGSLWADADNQFFASYDAPAVDAHYYAGVTYDYYKNVHNRLSYDGNNAAIRSSVHYSQGYNNAFWNGSQMVYGDGDGQTFIPLSGGIDVVAHELTHAVTDYTAGLIYQNESGAINEAISDIFGTLVEFYANKNPDWEIGEDVYTPGISGDSLRSMSDPAKYGDPDHYSKRYTGTQDNGGVHINSGIINKAAYLISQGGTHYGVSVVGIGRDKLGKIFYRALTNYLTPTSNFSQLRAAAVQSATDLYGSTSQEVASVKQAFDAVGVK
Completion: 1.25
